Several publications report IC50 on Prostaglandin G/H synthase 2 (Homo sapiens); those values are gathered here.

// map "CCc1cc(-c2ccc(S(C)(=O)=O)cc2)nc(NCc2cnn(C)c2)c1F" to recorded IC50 (system: Prostaglandin G/H synthase 2 (Homo sapiens)) ≤ 500 nM

Hello, I am looking for reported IC50 with Prostaglandin G/H synthase 2 (Homo sapiens) for "CS(=O)(=O)c1ccc(-c2cc(C(F)(F)F)cc(NC3CCC3)n2)cc1" . Could you help? ≤ 500 nM

Missing value: IC50, Prostaglandin G/H synthase 2 (Homo sapiens), entry "Cc1ccc(-c2ccc(S(C)(=O)=O)cc2)nc1NCc1ccccc1" . Fill in? ≤ 500 nM

What IC50 appears in the records for this molecule with Prostaglandin G/H synthase 2 (Homo sapiens)? "CN(Cc1ccccc1)c1cccc(-c2ccc(S(C)(=O)=O)cc2)n1" ≤ 500 nM

Request: IC50, test system Prostaglandin G/H synthase 2 (Homo sapiens), entry "COc1ccc(Oc2nc(-c3ccc(S(C)(=O)=O)cc3)cc(C(F)(F)F)n2)cc1" 4 nM

Return IC50 measured with Prostaglandin G/H synthase 2 (Homo sapiens) given this molecule: "Cc1cc(NCc2cc(F)cc(F)c2)nc(-c2ccc(S(C)(=O)=O)cc2)c1" ≤ 500 nM

Fill in the recorded IC50 for this molecule, with Prostaglandin G/H synthase 2 (Homo sapiens) as test system: "CCCCNc1cc(C(F)(F)F)cc(-c2ccc(S(C)(=O)=O)cc2)n1" ≤ 500 nM

Query the reported IC50 for Prostaglandin G/H synthase 2 (Homo sapiens); item: "Cc1c(CNc2cc(C(F)(F)F)cc(-c3ccc(S(C)(=O)=O)cc3)n2)cnn1C" ≤ 500 nM

API: value(readout=IC50, system=Prostaglandin G/H synthase 2 (Homo sapiens)) for record "CS(=O)(=O)c1ccc(-c2cc(C(F)(F)F)cc(OCc3ccccn3)n2)cc1" ≤ 500 nM

What measured IC50 is associated with "C[C@@H](Nc1cc(C(F)(F)F)cc(-c2ccc(S(C)(=O)=O)cc2)n1)c1ccccc1" on Prostaglandin G/H synthase 2 (Homo sapiens)? ≤ 500 nM

Find IC50 (Prostaglandin G/H synthase 2 (Homo sapiens)) for the entry "CS(=O)(=O)c1ccc(-c2cc(C(F)(F)F)nc(NC3CCCCC3)n2)cc1" 0.5 nM

Item: "CCc1cc(NCc2ncnn2CC)nc(-c2ccc(S(C)(=O)=O)cc2)c1" Test system: Prostaglandin G/H synthase 2 (Homo sapiens) Read-out: IC50 Value: ? ≤ 500 nM

Report IC50 for "Cc1nn(C)cc1CNc1cc(C(F)(F)F)cc(-c2ccc(S(C)(=O)=O)cc2)n1" tested on Prostaglandin G/H synthase 2 (Homo sapiens). ≤ 500 nM

Form field: IC50 recorded for "CCN(Cc1ccccc1)c1cc(C(F)(F)F)cc(-c2ccc(S(C)(=O)=O)cc2)n1" with Prostaglandin G/H synthase 2 (Homo sapiens) (enter value) ≤ 500 nM

Item "Cc1cc(NCc2ncnn2C)nc(-c2ccc(S(C)(=O)=O)cc2)c1" with Prostaglandin G/H synthase 2 (Homo sapiens) - IC50? ≤ 500 nM

Query the reported IC50 for Prostaglandin G/H synthase 2 (Homo sapiens); item: "Cc1ccc(CNc2cc(C(F)(F)F)cc(-c3ccc(S(C)(=O)=O)cc3)n2)o1" ≤ 500 nM

Which IC50 is reported with Prostaglandin G/H synthase 2 (Homo sapiens) for this entry: "CCn1ccnc1CNc1cc(C)cc(-c2ccc(S(C)(=O)=O)cc2)n1" ? ≤ 500 nM

Missing value: IC50, Prostaglandin G/H synthase 2 (Homo sapiens), entry "Cc1cc(Nc2ccccc2Cl)nc(-c2ccc(S(C)(=O)=O)cc2)c1" . Fill in? ≤ 500 nM

Form entry - test system: Prostaglandin G/H synthase 2 (Homo sapiens); read-out: IC50; molecule: "CSc1ccc(-c2c(-c3ccc(Cl)cc3)nc3ncccn23)cc1Br" > 25000 nM

Enter reported IC50 observed with Prostaglandin G/H synthase 2 (Homo sapiens) for "COc1ccc(-c2nc3ncccn3c2-c2ccc(SC)c(Cl)c2)cc1" > 25000 nM

Write down the reported IC50 of "Cc1cc(NCc2ccc(Cl)cc2)nc(-c2ccc(S(C)(=O)=O)cc2)c1" , test system: Prostaglandin G/H synthase 2 (Homo sapiens). ≤ 500 nM

Kindly state the measured IC50 obtained for "CCCCNc1cc(C)cc(-c2ccc(S(C)(=O)=O)cc2)n1" with Prostaglandin G/H synthase 2 (Homo sapiens). ≤ 500 nM

# value lookup — system Prostaglandin G/H synthase 2 (Homo sapiens), readout IC50, item "Cc1cccc(Nc2cc(C(F)(F)F)cc(-c3ccc(S(C)(=O)=O)cc3)n2)n1" ≤ 500 nM

Which measured IC50 belongs to "CC(C)CNc1nc(-c2ccc(S(C)(=O)=O)cc2)cc(C(F)(F)F)n1" , tested on Prostaglandin G/H synthase 2 (Homo sapiens)? 12 nM

Form field: IC50 recorded for "CS(=O)(=O)c1ccc(-c2cc(C(F)(F)F)nc(Oc3ccc(F)c(F)c3)n2)cc1" with Prostaglandin G/H synthase 2 (Homo sapiens) (enter value) 23 nM

// map "CSc1ccc(-c2c(-c3ccc(Br)cc3)nc3ncccn23)cc1" to recorded IC50 (system: Prostaglandin G/H synthase 2 (Homo sapiens)) > 25000 nM

Notebook entry, Prostaglandin G/H synthase 2 (Homo sapiens) assay: IC50 of "CCc1cc(NCC2CCOCC2)nc(-c2ccc(S(C)(=O)=O)cc2)c1" = ? ≤ 500 nM

So what IC50 did "CCc1cc(NCc2ccccc2)nc(-c2ccc(S(C)(=O)=O)cc2)c1" get with Prostaglandin G/H synthase 2 (Homo sapiens)? ≤ 500 nM

Request: IC50, test system Prostaglandin G/H synthase 2 (Homo sapiens), entry "CSc1ccc(-c2nc3ncccn3c2-c2ccc(SC(C)C)c(Cl)c2)cc1" > 25000 nM

GET /values?readout=IC50&system=Prostaglandin G/H synthase 2 (Homo sapiens)&item= "Cc1ccc(Nc2cc(C(F)(F)F)cc(-c3ccc(S(C)(=O)=O)cc3)n2)c(C)n1" ≤ 500 nM

State its IC50 on Prostaglandin G/H synthase 2 (Homo sapiens): "Cc1cc(-c2ccc(S(C)(=O)=O)cc2)nc(N2CCCCC2)c1C" ≤ 500 nM

Prostaglandin G/H synthase 2 (Homo sapiens) / IC50 / "CCOC(=O)c1c(CC)cc(-c2ccc(S(C)(=O)=O)cc2)nc1NCc1ccccc1" : value? ≤ 500 nM

Hi! What's the reported IC50 for "CCc1cc(NCc2nccn2C)nc(-c2ccc(S(C)(=O)=O)cc2)c1" on Prostaglandin G/H synthase 2 (Homo sapiens)? ≤ 500 nM

Record "COc1ccc(CNc2cc(C)cc(-c3ccc(S(C)(=O)=O)cc3)n2)cc1" : what is its IC50 with Prostaglandin G/H synthase 2 (Homo sapiens)? ≤ 500 nM

Hi! What's the reported IC50 for "Cc1cc(-c2ccc(S(C)(=O)=O)cn2)nc(N(C)Cc2ccccc2)c1" on Prostaglandin G/H synthase 2 (Homo sapiens)? ≤ 500 nM
